tested on: PKAC-alpha; construct: gene PRKACA; conditions: concentration: 1 μM,replicates: in singlicate; n = 1;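 note: KINOMEscan kinase panel screen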
// values below are reported %Inh
// note: answer is a bare numeric in %

Worked cases, %Inh given:
MOLECULE: CS(=O)(=O)c1cccc(CNc2nc(Nc3ccc4c(c3)[C@@H]3C[C@@H]4CNC3=O)ncc2C(F)(F)F)c1
MEASUREMENT UNIT: %
QUANTITATIVE READOUT: 0
--
MOLECULE: CS(=O)(=O)Nc1ccc(-c2ccnc3[nH]ccc23)cc1
MEASUREMENT UNIT: %
QUANTITATIVE READOUT: 84
--
MOLECULE: COC(=O)c1cccc(NC(=O)NC2CCN(c3ccnc(NCc4ccc(F)cc4)n3)CC2)c1
MEASUREMENT UNIT: %
QUANTITATIVE READOUT: 0
--
MOLECULE: Cn1ccc2ncnc(Oc3ccc(NC(=O)Nc4cncc(C(F)(F)F)c4)c(Cl)c3)c21
MEASUREMENT UNIT: %
QUANTITATIVE READOUT: 0
--
MOLECULE: CC(C(=O)NC1CCN(c2ccnc(Nc3ccc(F)cc3)n2)C1)c1ccc(Cl)cc1 (centres unmarked)
MEASUREMENT UNIT: %
QUANTITATIVE READOUT: 0

The value of %Inh measured for the molecule CC(C)c1nc(-c2cccc(NS(=O)(=O)c3ccccc3)c2)c(-c2ccnc(Nc3ccc4c(c3)CN(C)CC4)n2)s1 turned out to be 0

The value of %Inh measured for the molecule O=C(Nc1cccc(C(F)(F)F)c1)c1cccc(Oc2ccc3nccn3n2)c1 turned out to be 17

The value of %Inh measured for the molecule COc1cc2c(Nc3ccc(NC(=O)c4ccccc4)cc3)ncnc2cc1OCCCN1CCOCC1 turned out to be 3

The value of %Inh measured for the molecule O=C(Nc1ccc(Oc2ccc3nc(NC(=O)C4CC4)cn3n2)c(F)c1)c1cccn(-c2ccccc2)c1=O turned out to be 0

The value of %Inh measured for the molecule CN(c1ccc2c(c1)nc(NCc1ccc(F)cc1)n2C)c1ccnc(Nc2ccc(CS(C)(=O)=O)cc2)n1.Cl turned out to be 24

###

test system: MAPKAPK2; details: concentration: 1 μM,replicates: in singlicate; n = 1
ENDPOINT LABEL: %Inh

Worked cases, %Inh given:
COMPOUND: CC(=O)Nc1ccc(-c2cc3ncnc(SCC(=O)O)c3s2)cc1
%Inh: 0%
--
COMPOUND: Cn1ccc2ncnc(Oc3ccc(NC(=O)Nc4cccc(C(F)(F)F)c4)c(F)c3)c21
%Inh: 22%
--
COMPOUND: Cc1cccc(-c2nc(Nc3ccncc3)c3sccc3n2)n1
%Inh: 0%
--
COMPOUND: CCN1CCN(CCCC(=O)Nc2n[nH]c3nc(-c4ccc(O)cc4)c(Br)cc23)CC1
%Inh: 17%
--
COMPOUND: COc1ccc(Nc2nccc(N3CCC(NC(=O)c4cccc(C#N)c4)C3)n2)cc1 (stereo not drawn)
%Inh: 0%

The value of %Inh measured for the compound COc1cccc(OC)c1C(=O)Nc1cccc(-c2nn3ccccc3c2-c2ccnc(Nc3cccc(F)c3)n2)c1 turned out to be 11%

The value of %Inh measured for the compound Cc1nnc(-c2ccc3occ(-c4ccc(S(C)=O)cc4)c3n2)o1 (stereo not drawn) turned out to be 0%

The value of %Inh measured for the compound Cl.c1ccc(Oc2ccc(Nc3ccnc4cc(-c5ccc(CN6CCNCC6)o5)ccc34)cc2)nc1 turned out to be 0%

The value of %Inh measured for the compound c1ccc(Oc2ccc(Nc3ccnc4ccc(-c5ccccn5)cc34)cc2)cc1 turned out to be 24%

###

test system: TAOK3; conditions: concentration: 1 μM,replicates: in singlicate; n = 1
ENDPOINT LABEL: %Inh (%)
// note: answer is a bare numeric in %

The value of %Inh measured for the molecule COC(=O)Nc1nc2cc(Oc3ccc(NC(=O)Nc4cc(C(F)(F)F)ccc4Cl)cc3)ccc2[nH]1.Cl turned out to be 0

The value of %Inh measured for the molecule O=C(Nc1ccc(Oc2ccc3nc(NC(=O)C4CC4)cn3n2)c(F)c1)c1cccn(-c2ccccc2)c1=O turned out to be 0

The value of %Inh measured for the molecule Cc1ccn2nc(-c3ccc(F)cc3)c(-c3ccncc3)c2c1.Cl turned out to be 0

The value of %Inh measured for the molecule CCN1CCN(CCCC(=O)Nc2n[nH]c3nc(-c4ccc(O)cc4)c(Br)cc23)CC1 turned out to be 66

The value of %Inh measured for the molecule CN(c1ccc2c(c1)nc(NCc1ccc(F)cc1)n2C)c1ccnc(Nc2ccc(CS(C)(=O)=O)cc2)n1.Cl turned out to be 3

The value of %Inh measured for the molecule N#Cc1cccc(C(=O)NC2CCN(c3ccnc(Nc4ccc(F)cc4)n3)C2)c1 (centres unmarked) turned out to be 0

The value of %Inh measured for the molecule CN1CCN(CCNc2nc3cc(Oc4ccc(NC(=O)Nc5cc(C(F)(F)F)ccc5F)cc4)ccc3[nH]2)CC1.Cl.Cl turned out to be 0

The value of %Inh measured for the molecule Cc1nnc(-c2ccc3occ(-c4ccc(S(C)=O)cc4)c3n2)o1 (centres unmarked) turned out to be 0

###

tested on: RIPK1; settings: concentration: 1 μM,replicates: in singlicate; n = 1
// values below are reported %Inh
// note: answer is a bare numeric in %

The value of %Inh measured for the molecule COc1cccc(CNC(=O)NC2CCN(c3ccnc(Nc4cc(OC)c(OC)c(OC)c4)n3)C2)c1 (stereo not shown) turned out to be 17

The value of %Inh measured for the molecule CCCC(=O)Nc1n[nH]c2ncccc12 turned out to be 0

The value of %Inh measured for the molecule O=C(NCC1CC1)c1ccc(-c2cc(C(=O)NC3CC3)ccc2F)cc1 turned out to be 0

The value of %Inh measured for the molecule COc1cc2c(Nc3ccc(NC(=O)c4ccccc4)cc3)ncnc2cc1OCCCN1CCOCC1 turned out to be 0

The value of %Inh measured for the molecule CCn1c(-c2nonc2N)nc2cncc(Br)c21 turned out to be 27

The value of %Inh measured for the molecule O=C(Nc1ccc(Oc2ccc3nc(NC(=O)C4CC4)cn3n2)c(F)c1)c1cccn(-c2ccccc2)c1=O turned out to be 80

The value of %Inh measured for the molecule O=C(Nc1n[nH]c2cc(-c3ccco3)ccc12)C1CC1 turned out to be 13

The value of %Inh measured for the molecule Cn1ccc2ncnc(Oc3ccc(NC(=O)Nc4cccc(C(F)(F)F)c4)c(F)c3)c21 turned out to be 23

The value of %Inh measured for the molecule CCOC(=O)N1CCC(n2cnc(-c3ccc(F)cc3)c2-c2ccnc(N)n2)CC1 turned out to be 18

The value of %Inh measured for the molecule c1ccc(Oc2ccc(Nc3ccnc4ccc(-c5ccccn5)cc34)cc2)cc1 turned out to be 0

The value of %Inh measured for the molecule Cn1ccc2ncnc(Oc3ccc(NC(=O)Nc4cnn(C(C)(C)C)c4)c(Cl)c3)c21 turned out to be 12

The value of %Inh measured for the molecule C[C@@H](Oc1cc(-n2cnc3ccc(-c4ccncc4)cc32)sc1C(N)=O)c1ccccc1Cl turned out to be 40

The value of %Inh measured for the molecule CN(c1ccc2c(c1)nc(NCc1ccc(F)cc1)n2C)c1ccnc(Nc2ccc(CS(C)(=O)=O)cc2)n1.Cl turned out to be 99.8

The value of %Inh measured for the molecule COC(=O)Nc1nc2cc(Oc3ccc(NC(=O)Nc4cc(C(F)(F)F)ccc4Cl)cc3)ccc2[nH]1.Cl turned out to be 41

###

// values below are reported %Inh
tested on: EPHA5; conditions: concentration: 1 μM,replicates: in singlicate; n = 1
// note: answer is a bare numeric in %

Worked cases, %Inh given:
COMPOUND: C[C@@H](Oc1cc(-n2cnc3cc(-c4ccncc4)ccc32)sc1C(N)=O)c1ccccc1Cl [GSK479719]
QUANTITATIVE READOUT: 0

COMPOUND: Cl.c1ccc(Oc2ccc(Nc3ccnc4cc(-c5ccc(CN6CCNCC6)o5)ccc34)cc2)nc1 [GW567142]
QUANTITATIVE READOUT: 0

COMPOUND: CC(C)S(=O)(=O)N1CCN(Cc2ccc3c(c2)nc(NC(=O)c2ccsc2)n3C[C@H](O)c2ccccc2)CC1 [GW635815]
QUANTITATIVE READOUT: 0

COMPOUND: O=C(NCC1CC1)c1ccc(-c2cc(C(=O)NC3CC3)ccc2F)cc1 [GW810445]
QUANTITATIVE READOUT: 0

The value of %Inh measured for the compound Cc1ccc(C(=O)Nc2ccc(Oc3ccc4nc(NC(=O)C5CC5)cn4c3)c(F)c2)c(=O)n1-c1ccccc1 turned out to be 45

The value of %Inh measured for the compound Cn1ccc2ncnc(Oc3ccc(NC(=O)Nc4ccnc(C(F)(F)F)c4)c(Cl)c3)c21 turned out to be 0

The value of %Inh measured for the compound COc1cccc(CNC(=O)NC2CCN(c3ccnc(Nc4cc(OC)c(OC)c(OC)c4)n3)C2)c1 (stereo not drawn) [GSK1379765] turned out to be 0

The value of %Inh measured for the compound O=C(Nc1ccc(Oc2ccc3nc(NC(=O)C4CC4)cn3n2)c(F)c1)c1cccn(-c2ccccc2)c1=O turned out to be 11

The value of %Inh measured for the compound Cn1ccc2ncnc(Oc3ccc(NC(=O)Nc4cnn(C(C)(C)C)c4)c(Cl)c3)c21 turned out to be 18

The value of %Inh measured for the compound CN1CCN(CCCNc2nccc(-c3c(-c4ccc(F)cc4)nn4cc(C(N)=O)ccc34)n2)CC1 [GW622475] turned out to be 0

The value of %Inh measured for the compound Cc1nnc(-c2ccc3occ(-c4ccc(S(C)=O)cc4)c3n2)o1 (stereo not drawn) turned out to be 1

The value of %Inh measured for the compound CC(C)c1nc(-c2cccc(NS(=O)(=O)c3ccccc3)c2)c(-c2ccnc(Nc3ccc4c(c3)CN(C)CC4)n2)s1 [GSK1649598] turned out to be 0
